For each of the compounds below, state its GI50.
Test system: RXF 393 renal
Protocol text: NCI tumour cell line growth inhibition, 48 h

Q: Could you please provide reported GI50 for OCC1SC(n2cnc3cncnc32)C(O)C1O (stereo unspecified) ? Thanks!
Ans: > 100 µM

Q: Could you please provide reported GI50 for COc1ccc(/C=C2/CN(C(=O)c3ccccc3F)C/C(=C\c3ccc(OC)cc3)C2=O)cc1 ? Thanks!
Ans: 1.85 µM

Q: Could you please provide reported GI50 for O=C(Cn1ccnc1[N+](=O)[O-])N(CCO)CCO ? Thanks!
Ans: > 1250 µM

Q: Could you please provide reported GI50 for CCOc1ccc(NC(=O)Nc2cc(C(C)C)ccc2C)cc1 ? Thanks!
Ans: 1.64 µM

Q: Could you please provide reported GI50 for COc1ccc2c(c1)Oc1nc(N)c(C#N)c(N)c1C2Sc1ccc(SC)cc1 (stereo unspecified) ? Thanks!
Ans: 1.72 µM

Q: Could you please provide reported GI50 for O=C(c1ccccc1)c1ccc(-c2ccc(O)cc2)cc1 ? Thanks!
Ans: 7.93 µM

Q: Could you please provide reported GI50 for COc1ccc(OC)c(/C=C/[N+](=O)[O-])c1 ? Thanks!
Ans: 1.8 µM

Q: Could you please provide reported GI50 for O=C(NNc1nc2cc(F)ccc2n2c(CN3CCOCC3)ccc12)c1ccccc1 ? Thanks!
Ans: 0.363 µM

Q: Could you please provide reported GI50 for O=C1Nc2ccc(Cl)cc2/C1=C\c1c(-c2ccc(F)cc2)nc2ccccn12 ? Thanks!
Ans: 1.87 µM

Q: Could you please provide reported GI50 for COc1ccc2c(c1)O/C(=C\c1cccc(OCC(=O)Nc3nc4ccccc4s3)c1)C2=O ? Thanks!
Ans: 1.96 µM

Q: Could you please provide reported GI50 for Cc1ccc(S(=O)(=O)N(C)C)cc1[N+](=O)[O-] ? Thanks!
Ans: > 100 µM
